The reported measurements were obtained from patent US20020151595A1.

target: human factor Xa (Homo sapiens); construct: human factor Xa; purchased Roche; assay: Inhibition of factor Xa, enzyme-kinetic measurement with chromogenic substrate; format: biochemical; settings: chromogenic substrate Chromozym X 200 μMol/l, pH 8.0, 37° C., photometric at 405 nm
Sequence (P00742 235-488 limits assumed): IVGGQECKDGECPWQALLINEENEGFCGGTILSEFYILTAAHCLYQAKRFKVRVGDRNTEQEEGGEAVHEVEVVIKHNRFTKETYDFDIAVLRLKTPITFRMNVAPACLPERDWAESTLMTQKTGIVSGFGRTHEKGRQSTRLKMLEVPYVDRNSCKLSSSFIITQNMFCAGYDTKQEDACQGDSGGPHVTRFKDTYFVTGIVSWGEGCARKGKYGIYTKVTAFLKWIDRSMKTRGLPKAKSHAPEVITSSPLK
Sequence (P00742 41-179 partner limits assumed): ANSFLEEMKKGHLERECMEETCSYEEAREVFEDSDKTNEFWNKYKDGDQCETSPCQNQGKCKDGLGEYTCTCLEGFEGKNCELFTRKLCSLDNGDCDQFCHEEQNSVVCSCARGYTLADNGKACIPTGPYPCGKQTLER
Exercise: for every item that follows, state its recorded IC50.
Give just the numeric value; µM need not be written.

Could you share which IC50 value was measured for N=C(N)c1ccc(O)c(CC(=O)Nc2ccc(C(=O)N3CCCC3)c(Cl)c2)c1 [(3)] ? 0.033

Could you share which IC50 value was measured for Cc1cc(NC(=O)C(C)(C)c2cccc(C(=N)N)c2)ccc1C(=O)N1CCCC1 [(1)] ? 0.028

Could you share which IC50 value was measured for N=C(N)c1ccc(O)c(CC(=O)Nc2ccc(C(=O)N3CCCC3)c(C(F)(F)F)c2)c1 [(4)] ? 0.011

Could you share which IC50 value was measured for Cc1cc(NC(=O)Cc2cc(C(=N)N)ccc2O)ccc1C(=O)C1CCCNC1 (stereo not shown) [(2)] ? 0.32
